Where do these numbers come from? They come from paper PMC6968521.

Reported IC50 for target or system CDK9 (Homo sapiens), by entry.
assay-metric: IC50 (nM)

* CN(C)C(=O)c1cc2cnc(Nc3ccc(CSCCCCCCCN=C=S)cc3)nc2n1C1CCCC1 | 42
* CN(C)C(=O)c1cc2cnc(Nc3ccc(CSCCCCCN=C=S)cc3)nc2n1C1CCCC1 | 34
* CN(C)C(=O)c1cc2cnc(Nc3ccc(S(=O)(=O)CCCCCCN=C=S)cc3)nc2n1C1CCCC1 | 13
* CN(C)C(=O)c1cc2cnc(Nc3ccc(CSCCCCN=C=S)cc3)nc2n1C1CCCC1 | 29
* CN(C)C(=O)c1cc2cnc(Nc3ccc(S(=O)(=O)CCCCCN=C=S)cc3)nc2n1C1CCCC1 | 8
* CN(C)C(=O)c1cc2cnc(Nc3ccc(CS(=O)(=O)CCCN=C=S)cc3)nc2n1C1CCCC1 | 6
* CN(C)C(=O)c1cc2cnc(Nc3ccc(CSCCCCCCN=C=S)cc3)nc2n1C1CCCC1 | 55

====

Molecular target: CDK9 (Homo sapiens, UniProt P50750)
Construct: purchased Eurofins (KinaseProfiler service)
Sequence (P50750 whole entry): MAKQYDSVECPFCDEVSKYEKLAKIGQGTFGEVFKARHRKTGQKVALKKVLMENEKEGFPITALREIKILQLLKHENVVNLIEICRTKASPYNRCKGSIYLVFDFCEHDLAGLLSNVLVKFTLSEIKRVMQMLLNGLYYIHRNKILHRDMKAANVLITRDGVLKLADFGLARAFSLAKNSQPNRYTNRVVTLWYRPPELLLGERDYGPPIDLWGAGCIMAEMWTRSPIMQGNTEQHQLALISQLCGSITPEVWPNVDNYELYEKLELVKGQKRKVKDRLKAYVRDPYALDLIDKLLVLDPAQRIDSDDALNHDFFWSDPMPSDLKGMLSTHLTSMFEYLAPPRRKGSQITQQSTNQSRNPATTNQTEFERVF
Sequence (O60563 whole entry partner): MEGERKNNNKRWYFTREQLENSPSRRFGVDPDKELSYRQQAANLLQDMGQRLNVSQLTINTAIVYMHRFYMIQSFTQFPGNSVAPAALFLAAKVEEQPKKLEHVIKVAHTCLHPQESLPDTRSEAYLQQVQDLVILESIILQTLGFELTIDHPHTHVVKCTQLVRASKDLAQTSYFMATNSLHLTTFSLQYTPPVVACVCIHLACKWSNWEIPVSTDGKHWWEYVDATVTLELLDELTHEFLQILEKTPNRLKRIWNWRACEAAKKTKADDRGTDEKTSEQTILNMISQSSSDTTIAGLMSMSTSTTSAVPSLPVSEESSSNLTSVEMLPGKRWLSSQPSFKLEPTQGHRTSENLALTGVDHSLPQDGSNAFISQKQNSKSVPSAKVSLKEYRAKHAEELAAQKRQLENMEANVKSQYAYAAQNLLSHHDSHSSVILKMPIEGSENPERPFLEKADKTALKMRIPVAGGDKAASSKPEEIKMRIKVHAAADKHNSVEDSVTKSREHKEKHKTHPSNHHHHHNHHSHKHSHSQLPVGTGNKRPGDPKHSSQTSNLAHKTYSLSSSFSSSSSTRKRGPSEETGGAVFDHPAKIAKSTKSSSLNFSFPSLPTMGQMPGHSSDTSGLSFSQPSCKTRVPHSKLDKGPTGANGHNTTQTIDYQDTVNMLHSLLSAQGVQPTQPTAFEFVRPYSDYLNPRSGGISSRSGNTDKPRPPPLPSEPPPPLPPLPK
Assay: Kinase inhibition assay (KinaseProfiler, Eurofins), CDK9
Type: biochemical
assay-metric: inhibition at 1 µM (%)

• Cc1cc(SCCCCCN=C=S)ccc1Nc1ncc2cc(C(=O)N(C)C)n(C3CCCC3)c2n1 = 80
• CN(C)C(=O)c1cc2cnc(Nc3ccc(S(=O)(=O)CCCN=C=S)cc3)nc2n1C1CCCC1 = 97
• CN(C)C(=O)c1cc2cnc(Nc3ccc(S(=O)(=O)CCCCCCN=C=S)cc3)nc2n1C1CCCC1 = 97
• CN(C)C(=O)c1cc2cnc(Nc3ccc(N4CCNCC4)cn3)nc2n1C1CCCC1 [Ribociclib, ribociclib, reference compound] = 84

====

The entries below come with measured inhibition at 1 µM values attached.
Biological target: CDK4 (Homo sapiens)
Construct: purchased Eurofins (KinaseProfiler service)
Sequence (P11802 whole entry): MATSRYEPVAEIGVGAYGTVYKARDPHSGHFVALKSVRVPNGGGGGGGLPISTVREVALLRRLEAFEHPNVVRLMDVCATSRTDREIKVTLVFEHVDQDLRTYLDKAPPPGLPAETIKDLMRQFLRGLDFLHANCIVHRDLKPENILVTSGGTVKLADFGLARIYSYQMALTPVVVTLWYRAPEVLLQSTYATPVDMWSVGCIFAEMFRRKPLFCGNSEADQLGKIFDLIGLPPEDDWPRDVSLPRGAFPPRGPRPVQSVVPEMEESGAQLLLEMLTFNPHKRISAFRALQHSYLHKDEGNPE
Sequence (P30281 whole entry partner): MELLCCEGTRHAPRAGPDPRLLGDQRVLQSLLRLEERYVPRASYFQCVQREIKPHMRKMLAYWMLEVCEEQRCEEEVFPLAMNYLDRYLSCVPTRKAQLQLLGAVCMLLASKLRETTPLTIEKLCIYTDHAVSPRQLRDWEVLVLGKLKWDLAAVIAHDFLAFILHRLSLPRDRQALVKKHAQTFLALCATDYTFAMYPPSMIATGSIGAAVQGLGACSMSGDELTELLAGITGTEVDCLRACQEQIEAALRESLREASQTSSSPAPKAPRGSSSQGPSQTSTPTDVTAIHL
Test: Kinase inhibition assay (KinaseProfiler, Eurofins), CDK4
Type: biochemical
assay-metric: inhibition at 1 µM (%)

• CN(C)C(=O)c1cc2cnc(Nc3ccc(S(=O)(=O)CCCCN=C=S)cc3)nc2n1C1CCCC1 = 90
• CN(C)C(=O)c1cc2cnc(Nc3ccc([S+]([O-])CCCCCN=C=S)cc3C(F)(F)F)nc2n1C1CCCC1 (stereo not drawn) = 91
• CN(C)C(=O)c1cc2cnc(Nc3ccc(S(=O)(=O)CCCCCN=C=S)cc3C(F)(F)F)nc2n1C1CCCC1 = 35
• Cc1cc(SCCCCCN=C=S)ccc1Nc1ncc2cc(C(=O)N(C)C)n(C3CCCC3)c2n1 = 29
• CN(C)C(=O)c1cc2cnc(Nc3ccc(S(=O)(=O)CCCCCN=C=S)cc3)nc2n1C1CCCC1 = 89
• CN(C)C(=O)c1cc2cnc(Nc3ccc(CS(=O)(=O)CCCN=C=S)cc3)nc2n1C1CCCC1 = 98
• CN(C)C(=O)c1cc2cnc(Nc3ccc([S+]([O-])CCCCCN=C=S)cc3)nc2n1C1CCCC1 (stereo not drawn) = 99
• CN(C)C(=O)c1cc2cnc(Nc3ccc(CS(=O)(=O)CCCCCCN=C=S)cc3)nc2n1C1CCCC1 = 97
• CN(C)C(=O)c1cc2cnc(Nc3ccc(CSCCCN=C=S)cc3)nc2n1C1CCCC1 = 95
• CN(C)C(=O)c1cc2cnc(Nc3ccc(CSCCCCCCN=C=S)cc3)nc2n1C1CCCC1 = 61
• CN(C)C(=O)c1cc2cnc(Nc3ccc(CS(=O)(=O)CCCCCN=C=S)cc3)nc2n1C1CCCC1 = 98
• CN(C)C(=O)c1cc2cnc(Nc3ccc(CSCCCCN=C=S)cc3)nc2n1C1CCCC1 = 83
